Some compounds, each annotated with its measured TGI.
System: UACC-257 melanoma
MEASUREMENT PROTOCOL: NCI tumour cell line growth inhibition, 48 h

Record excerpt, results attached:
>  <COMPOUND>
C1CSCCSCCSCCSCCS1

>  <TGI>
> 100 µM

$$$$
>  <COMPOUND>
COC(=O)C1C(C(=O)O)C2(c3ccccc3)C(=O)C1(c1ccccc1)C(c1ccc(OC)cc1)=C2c1ccc(OC)cc1 (stereo unspecified)

>  <TGI>
43.9 µM

$$$$
>  <COMPOUND>
O=C(Cc1cc(O)ccc1O)NO

>  <TGI>
> 100 µM

$$$$
>  <COMPOUND>
CC(=O)Oc1ccc(C2OC(c3ccc4ccccc4c3OC(C)=O)=NN2C(C)=O)c(OC(C)=O)c1 (stereo unspecified)

>  <TGI>
6.59 µM

$$$$
>  <COMPOUND>
Nc1ccc(-c2nc3ccccc3s2)cc1CO

>  <TGI>
> 100 µM

$$$$

Here is the next item to consider.
QUERY: Return value of TGI for input CCN(N=O)C1C2(CCCC2)NC(=O)C12CCCC2 (stereo unspecified) , no commentary.
RESULT: > 100 µM

###

System: NCI-H522 lung
MEASUREMENT PROTOCOL: NCI tumour cell line growth inhibition, 48 h
Some compounds, each annotated with its measured TGI.

>  <COMPOUND>
COc1cc2c(Nc3ccc(-c4ccc(N)cc4)cc3)ncnc2c(OC)c1OC

>  <TGI>
> 80.9 µM

$$$$

Here is the next item to consider.
QUERY: Return value of TGI for input `CS(=O)(=O)Nc1cc(-c2ccc3ncc(C#N)c(Nc4ccc(F)c(Cl)c4)c3c2)cnc1Cl` , no commentary.
RESULT: 1.46 µM

###

Test system: SW-620 colon
MEASUREMENT PROTOCOL: NCI tumour cell line growth inhibition, 48 h
Some compounds, each annotated with its measured TGI.
I only need the number, in µM, no unit after it.

>  <COMPOUND>
Cc1[nH]c(C(=O)Nc2cccc(OC3CCNCC3)c2)c(Cl)c1Cl

>  <TGI (µM)>
3.64

$$$$

QUERY: Return value of TGI for input CCCCCCCCCCCCC(O)C1CCC(C(O)CCCCC(O)CCCCCC2CC(CC(C)=O)C(=O)O2)O1 (centres undefined) , no commentary.
RESULT: 25.4

###

System: HOP-18 NSCLC
MEASUREMENT PROTOCOL: NCI tumour cell line growth inhibition, 48 h
PROPERTY MEASURED: TGI

Record excerpt, results attached:
>  <COMPOUND>
NNC(=O)/C(NC(=O)c1ccccc1)=C(\N)c1cccc([N+](=O)[O-])c1

>  <ASSAYED TARGET>
HOP-18 NSCLC

>  <TGI>
> 100 µM

$$$$
>  <COMPOUND>
c1cc2c(cc1C1OCC3C(c4ccc5c(c4)OCO5)OCC13)OCO2 (centres undefined)

>  <ASSAYED TARGET>
HOP-18 NSCLC

>  <TGI>
> 100 µM

$$$$
>  <COMPOUND>
COC(=O)C(=O)C(C(=O)OC)C(=O)C(=O)Nc1cc(Cl)c(C)cc1S(=O)(=O)O (centres undefined)

>  <ASSAYED TARGET>
HOP-18 NSCLC

>  <TGI>
> 100 µM

$$$$
>  <COMPOUND>
O=C1c2ccccc2C(=O)c2c1oc1cc(O)c(Cl)cc21

>  <ASSAYED TARGET>
HOP-18 NSCLC

>  <TGI>
6.79 µM

$$$$
>  <COMPOUND>
C/C=C1\Oc2ccc(OC)cc2S1(=O)=O

>  <ASSAYED TARGET>
HOP-18 NSCLC

>  <TGI>
> 100 µM

$$$$
>  <COMPOUND>
O=C(O)C1=Cc2cccc3cccc(c23)C1=O

>  <ASSAYED TARGET>
HOP-18 NSCLC

>  <TGI>
> 100 µM

$$$$
>  <COMPOUND>
N#Cc1ccc(C2OCC3CC=CCC3CO2)cc1 (centres undefined)

>  <ASSAYED TARGET>
HOP-18 NSCLC

>  <TGI>
> 100 µM

$$$$
>  <COMPOUND>
CC1CC(C)(O)C2C3(C)CCCC2(COC3=O)C12CCC1(CCOC1=O)O2 (centres undefined)

>  <ASSAYED TARGET>
HOP-18 NSCLC

>  <TGI>
> 250 µM

$$$$

QUERY: Return value of TGI for input `O=C1CCC(=O)c2ccccc2N1` , no commentary.
RESULT: > 100 µM

###

Tested on: MDA-MB-231 breast
MEASUREMENT PROTOCOL: NCI tumour cell line growth inhibition, 48 h
PROPERTY MEASURED: GI50

>  <COMPOUND>
C=C(C(=O)c1ccccc1)C(NC(C)(C)C)c1ccccc1 (stereo not given)

>  <GI50>
2.06 µM

$$$$

Here is the next item to consider.
QUERY: Return value of GI50 for input `CC[C@]12C=CCN3CC[C@@]4(c5ccc(OC)cc5N(C)[C@H]4[C@@](O)(C(=O)OC)[C@@H]1OC(=O)CCC(=O)O[C@H]1CC[C@H]4[C@@H]5CCC6=CC(=O)CC[C@@H]6[C@H]5CC[C@]14C)[C@@H]32` , no commentary.
RESULT: 2.21 µM

###

Some compounds, each annotated with its measured TGI.
Tested on: MDA-MB-435
MEASUREMENT PROTOCOL: NCI tumour cell line growth inhibition, 48 h

QUERY: Return value of TGI for input CCC1=CC(OCc2ccccc2)C(CCN(Cc2ccccc2)C(=O)OCc2ccccc2)C1 (centres undefined) , no commentary.
RESULT: 32.7 µM

QUERY: Return value of TGI for input `CCN1CCN(Cc2ccc(NC(=O)Nc3nc(-c4cc(OC)c(OC)c(OC)c4)cs3)cc2C(F)(F)F)CC1` , no commentary.
RESULT: 2.82 µM

QUERY: Return value of TGI for input `CS(=O)(=O)N1CCC(Nc2ncc(C(=O)c3c(F)cccc3F)c(N)n2)CC1` , no commentary.
RESULT: > 25 µM

QUERY: Return value of TGI for input `Cn1c2ncccc2n2c(=O)cc(O)cc12` , no commentary.
RESULT: > 100 µM

QUERY: Return value of TGI for input `Cc1nn(CNc2ccc(F)c(Cl)c2)c(=S)n1/N=C/c1ccc(-c2ccc(Cl)cc2Cl)o1` , no commentary.
RESULT: 39 µM

QUERY: Return value of TGI for input `O=c1ccn(C/C=C/c2ccccc2)c(=S)n1C/C=C/c1ccccc1` , no commentary.
RESULT: > 100 µM

QUERY: Return value of TGI for input `Cc1ccc2ncnc(N(C)C3CCCCC3)c2c1` , no commentary.
RESULT: 68.2 µM

QUERY: Return value of TGI for input `CC1(C)CC[C@]23CC[C@]4(C)[C@H](CC[C@@H]5[C@@]6(C)CCCNC(C)(C)[C@@H]6CC[C@]54C)[C@H]2[C@H]1OC3` , no commentary.
RESULT: 3.02 µM

QUERY: Return value of TGI for input `COc1ccc2c(O)c1-c1c(OC)ccc(c1O)SSc1ccc(OC)c(c1O)-c1c(OC)ccc(c1O)SS2` , no commentary.
RESULT: > 100 µM

QUERY: Return value of TGI for input `Nc1ncnc2c1ccn2CC#CCO` , no commentary.
RESULT: > 100 µM

QUERY: Return value of TGI for input CC(=O)OC1C(O)C(C)OC(OC2C(OC(=O)C3CCC4C(C3)OC3(CC(OC(=O)/C=C/c5ccccc5)C(C)CO3)C43CO3)OC(C)C(O)C2OC(C)=O)C1O (centres undefined) , no commentary.
RESULT: 0.00649 µM

QUERY: Return value of TGI for input `NC(=O)c1c[nH]c2ncnc(N)c12` , no commentary.
RESULT: > 100 µM

###

Tested on: SF-268 CNS
MEASUREMENT PROTOCOL: NCI tumour cell line growth inhibition, 48 h
PROPERTY MEASURED: TGI

Record excerpt, results attached:
>  <COMPOUND>
[O-]c1c2c(nn1-c1ccc(F)cc1)c1ccccc1c[n+]2Cc1ccccc1

>  <PROPERTY MEASURED>
TGI

>  <ASSAY RESULT>
40.7 µM

$$$$
>  <COMPOUND>
OC1CC(O)O[C@H](c2ccccc2)C1 (some centres undefined)

>  <PROPERTY MEASURED>
TGI

>  <ASSAY RESULT>
> 100 µM

$$$$
>  <COMPOUND>
CCCCCCCCCCCCCCCCCCN(C)CC(COC)OP(=O)([O-])OCC[N+](C)(C)C (centres undefined)

>  <PROPERTY MEASURED>
TGI

>  <ASSAY RESULT>
4.17 µM

$$$$
>  <COMPOUND>
CN1C(=O)C(=Cc2ccc(Br)cc2)C(=O)N(C)C1=O

>  <PROPERTY MEASURED>
TGI

>  <ASSAY RESULT>
> 100 µM

$$$$
>  <COMPOUND>
CC1(C)CC[C@]23CC[C@]4(C)[C@H](CC[C@@H]5[C@@]6(C)CCCNC(C)(C)[C@@H]6CC[C@]54C)[C@H]2[C@H]1OC3

>  <PROPERTY MEASURED>
TGI

>  <ASSAY RESULT>
5.31 µM

$$$$
>  <COMPOUND>
COc1cc(-c2nc(N)c(C#N)c3c2CCS(=O)(=O)c2ccc(C)cc2-3)cc(OC)c1OC

>  <PROPERTY MEASURED>
TGI

>  <ASSAY RESULT>
> 100 µM

$$$$
>  <COMPOUND>
CS(=O)(=O)N1CCC(Nc2ncc(C(=O)c3c(F)cccc3F)c(N)n2)CC1

>  <PROPERTY MEASURED>
TGI

>  <ASSAY RESULT>
> 25 µM

$$$$
>  <COMPOUND>
COc1nc(=O)[nH]c2c1C(c1ccc([N+](=O)[O-])cc1)c1c(OC)nc(=O)[nH]c1O2

>  <PROPERTY MEASURED>
TGI

>  <ASSAY RESULT>
> 100 µM

$$$$

Here is the next item to consider.
QUERY: Return value of TGI for input `Cc1cn(CC(=S)NCCc2c[nH]c3ccccc23)c(=O)[nH]c1=O` , no commentary.
RESULT: > 100 µM
